Origin of measurements: ChEMBL document CHEMBL1130812

experiment: Reversible Inhibitory activity on Cysteinyl protease was evaluated; design: species or system Dermatophagoides pteronyssinus
measurement-label: Ki (nM)
All answers are understood in nM, so give the number only.

Q: Write down Ki measured for item CCCC[C@H](NC(=O)[C@H](C)NC(=O)[C@@H](NC(=O)c1ccccc1)C(C)C)C(=O)CBr
Result: 1.6

====

tested on: Dermatophagoides pteronyssinus; test: Inhibitory activity against Cysteinyl protease was evaluated by method A in experiment 2
measurement-label: k obs / 1
Note: a bare number is incomplete; add the unit.

Example entries and their recorded answers appear below.
CCOC(=O)/C=C/[C@H](CC(C)C)NC(=O)[C@H](C)NC(=O)[C@@H](NC(=O)c1ccccc1)C(C)C; 16000 M⁻¹ s⁻¹
CC(C)C[C@@H](/C=C/S(=O)(=O)Cc1ccccc1)NC(=O)[C@H](C)NC(=O)[C@@H](NC(=O)OC(C)(C)C)C(C)C; 350000 M⁻¹ s⁻¹

Q: Please indicate recorded k obs / 1 of CCCC[C@H](NC(=O)[C@H](C)NC(=O)[C@@H](NC(=O)c1ccccc1)C(C)C)C(=O)COC(=O)c1c(C(F)(F)F)cccc1C(F)(F)F measured with Dermatophagoides pteronyssinus.
Result: 2.2e+06 M⁻¹ s⁻¹

Q: Give k obs / 1 for this entry on Dermatophagoides pteronyssinus: CCOC(=O)/C=C/[C@H](CC(C)C)NC(=O)[C@H](C)NC(=O)[C@@H](NC(=O)OC(C)(C)C)C(C)C
Result: 7900 M⁻¹ s⁻¹

Q: # return k obs / 1 for CC(C)C[C@@H](/C=C/S(=O)(=O)c1ccccc1)NC(=O)[C@H](C)NC(=O)[C@@H](NC(=O)OC(C)(C)C)C(C)C , test system: Dermatophagoides pteronyssinus
Result: 25000 M⁻¹ s⁻¹

Q: State the measured k obs / 1 (Dermatophagoides pteronyssinus) of CCCC[C@H](NC(=O)[C@H](C)NC(=O)[C@@H](NC(=O)c1ccccc1)C(C)C)C(=O)COC(=O)c1ccccc1
Result: 50000 M⁻¹ s⁻¹

Q: Report the value of k obs / 1 obtained on Dermatophagoides pteronyssinus for CC(C)C[C@@H](/C=C/S(C)(=O)=O)NC(=O)[C@H](C)NC(=O)[C@@H](NC(=O)OC(C)(C)C)C(C)C .
Result: 11000 M⁻¹ s⁻¹
